Measured on: T1, human IL-11Rα on transfected cells (human, UniProt Q14626 23-422)
T1 sequence: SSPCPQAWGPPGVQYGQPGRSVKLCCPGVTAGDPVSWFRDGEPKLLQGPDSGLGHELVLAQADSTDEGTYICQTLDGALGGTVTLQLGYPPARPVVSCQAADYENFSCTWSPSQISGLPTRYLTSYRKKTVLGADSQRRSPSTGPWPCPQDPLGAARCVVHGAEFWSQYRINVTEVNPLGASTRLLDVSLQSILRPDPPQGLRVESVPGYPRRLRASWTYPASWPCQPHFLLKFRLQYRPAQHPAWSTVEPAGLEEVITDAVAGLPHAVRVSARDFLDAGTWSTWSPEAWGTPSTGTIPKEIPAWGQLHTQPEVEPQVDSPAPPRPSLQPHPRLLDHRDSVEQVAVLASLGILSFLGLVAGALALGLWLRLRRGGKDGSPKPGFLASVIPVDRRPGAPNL
Method summary: cell-based or functional assay
Item-by-item account of IC50
Form entry: value (µg/mL) — number only.

For hu8E2-TS-21 (antibody, V domains shown) VH: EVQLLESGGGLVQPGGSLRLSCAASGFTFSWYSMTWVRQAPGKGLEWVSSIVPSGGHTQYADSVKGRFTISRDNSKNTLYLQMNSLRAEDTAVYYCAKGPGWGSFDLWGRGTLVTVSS VL: DIQMTQSPSSLSASVGDRVTITCQASQDINNYLNWYQQKPGKAPKLLIYDASNLQTGVPSRFSGSGSGTDFTFTISSLQPEDIATYYCQQSESQSPTFGPGTKVDIK , write its IC50. 0.31

For hu8E2-TS-17 (antibody, V domains shown) VH: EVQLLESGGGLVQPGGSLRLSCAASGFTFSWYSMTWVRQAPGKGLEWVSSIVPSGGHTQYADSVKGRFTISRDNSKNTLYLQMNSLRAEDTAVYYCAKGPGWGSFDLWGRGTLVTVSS VL: DIQMTQSPSSLSASVGDRVTITCQASQDINNYLNWYQQKPGKAPKLLIYDASNLQTGVPSRFSGSGSGTDFTFTISSLQPEDIATYYCSQFESQSPTFGPGTKVDIK , write its IC50. 0.35

For hu8E2-TS-311 (antibody, V domains shown) VH: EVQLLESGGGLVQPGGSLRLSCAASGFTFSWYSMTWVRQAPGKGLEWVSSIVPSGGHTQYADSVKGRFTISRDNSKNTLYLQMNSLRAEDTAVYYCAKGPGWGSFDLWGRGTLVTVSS VL: DIQMTQSPSSLSASVGDRVTITCQASQDVSQYIEWYQQKPGKAPKLLIYDASNLQTGVPSRFSGSGSGTDFTFTISSLQPEDIATYYCQQYDNLSPTFGPGTKVDIK , write its IC50. 0.6
